- System: P. falciparum TM90-C235
- procedureText: Malaria SYBR Green 1-Based Fluorescence (MSF) Assay, strain TM90-C235
- Assay type: cell-based
- experimentalContext: Plasmodium falciparum, TM90, chloroquine resistant strain TM90-C235; read-out: TM90-C235 IC50
measurementLabel: pIC50
Answers are plain numbers, as −log10 of the molar value.

Q: Can you look up pIC50 on P. falciparum TM90-C235 for O=C(Oc1ccc(Cl)cc1C(=O)Nc1ccc([N+](=O)[O-])cc1Cl)c1ccccc1 [Compound 7a] ?
A: 6.22
